Data origin, for the record: paper PMC5175369

# Test system: rabbit reticulocyte lysates (RRLs)
# experiment notes: Translation efficiency of capped luciferase mRNA in RRL
# Format: biochemical
# measurement context: ApppG-capped mRNA translation subtracted before normalization to m^7GpppG
measured quantity: relative cap-dependent translation efficiency

I = COC1C(O)[C@@H](COP(=O)(O)OP(=O)([S-])OP(=O)(O)OP(=O)(O)OC[C@H]2O[C@@H](n3cnc4c(=O)[nH]c(N)nc43)C(O)C2O)O[C@H]1n1c[n+](C)c2c(O)nc(N)nc21 (mixture of isomers) [m2^7,2′-OGppSppG D1D2, m2^7,2′-OGppSppG]
II = CO[C@@H]1[C@H](O)[C@@H](COP(=O)(O)OP(=O)([O-])OP(=O)(O)OP(=O)(O)OC[C@H]2O[C@@H](n3cnc4c(=O)[nH]c(N)nc43)[C@H](O)[C@@H]2O)O[C@H]1n1c[n+](C)c2c(O)nc(N)nc21 [m2^7,2′-OGppppG]
Hi, I'm comparing I with II and wondering which one has the bigger number for relative cap-dependent translation efficiency. Any idea? State the label of the item chosen.
I
